measured.on: Monoamine transporters; serotonin & dopamine (Homo sapiens) (UniProt P31645+Q01959)
Sequence (P31645 whole entry, looked up): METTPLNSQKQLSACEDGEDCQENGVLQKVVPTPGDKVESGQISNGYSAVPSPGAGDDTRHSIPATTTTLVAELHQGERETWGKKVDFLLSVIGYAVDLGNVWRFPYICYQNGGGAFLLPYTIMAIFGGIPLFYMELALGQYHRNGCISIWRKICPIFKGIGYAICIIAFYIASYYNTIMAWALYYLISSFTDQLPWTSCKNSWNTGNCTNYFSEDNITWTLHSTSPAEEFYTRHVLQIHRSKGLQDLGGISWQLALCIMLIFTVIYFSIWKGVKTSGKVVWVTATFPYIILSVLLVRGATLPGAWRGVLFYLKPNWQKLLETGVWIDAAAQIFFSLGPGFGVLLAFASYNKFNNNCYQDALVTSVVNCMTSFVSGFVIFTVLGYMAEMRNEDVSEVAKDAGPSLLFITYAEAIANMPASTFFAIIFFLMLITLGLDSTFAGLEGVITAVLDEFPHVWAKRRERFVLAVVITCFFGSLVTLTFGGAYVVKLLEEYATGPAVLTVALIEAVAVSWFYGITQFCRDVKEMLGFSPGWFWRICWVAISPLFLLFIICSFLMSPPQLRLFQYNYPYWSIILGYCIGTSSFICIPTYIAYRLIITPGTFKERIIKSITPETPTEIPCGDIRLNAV
Sequence (Q01959 whole entry, looked up): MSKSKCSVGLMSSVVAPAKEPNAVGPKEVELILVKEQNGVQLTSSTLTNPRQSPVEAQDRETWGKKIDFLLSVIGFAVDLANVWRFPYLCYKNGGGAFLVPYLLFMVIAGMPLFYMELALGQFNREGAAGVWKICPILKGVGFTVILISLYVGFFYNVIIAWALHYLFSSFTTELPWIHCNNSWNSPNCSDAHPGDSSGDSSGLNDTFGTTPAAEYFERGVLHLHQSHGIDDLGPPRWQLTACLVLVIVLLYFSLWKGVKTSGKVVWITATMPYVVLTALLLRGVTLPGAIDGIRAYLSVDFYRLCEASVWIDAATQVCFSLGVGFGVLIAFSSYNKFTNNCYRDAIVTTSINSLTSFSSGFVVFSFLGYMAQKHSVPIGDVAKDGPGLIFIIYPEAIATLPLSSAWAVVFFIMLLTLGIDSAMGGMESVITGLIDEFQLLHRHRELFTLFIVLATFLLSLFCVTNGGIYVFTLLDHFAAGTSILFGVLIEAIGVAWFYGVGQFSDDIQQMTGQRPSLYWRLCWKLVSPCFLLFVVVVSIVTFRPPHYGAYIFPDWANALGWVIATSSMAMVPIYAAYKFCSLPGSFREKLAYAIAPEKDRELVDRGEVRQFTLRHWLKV
experiment.notes: SERT/DAT ratio of the compound
Type: protein assay
Could you label it criterion met if measured Ratio is 10 or higher, and criterion not met otherwise?

# compound, measured.on, assigned.class
records = [
    ("COC(=O)C1=C(c2ccc3ccccc3c2)CC2C[C@@H](O)C1N2C (stereo not given in full)", "Monoamine transporters; serotonin & dopamine (Homo sapiens) (UniProt P31645+Q01959)", "criterion met"),
    ("COC(=O)C1C(c2ccc(F)cc2)CC2[C@@H](O)CC1N2C (stereo in doubt; 14c)", "Monoamine transporters; serotonin & dopamine (Homo sapiens) (UniProt P31645+Q01959)", "criterion met"),
    ("COC(=O)C1C(c2ccc(Cl)c(Cl)c2)CC2CCC1N2C (stereo in doubt; 13a)", "Monoamine transporters; serotonin & dopamine (Homo sapiens) (UniProt P31645+Q01959)", "criterion not met"),
    ("COC(=O)C1=C(c2ccc(F)cc2)CC2C[C@@H](O)C1N2C (stereo not given in full)", "Monoamine transporters; serotonin & dopamine (Homo sapiens) (UniProt P31645+Q01959)", "criterion not met"),
    ("COC(=O)C1=C(c2ccc(Cl)c(Cl)c2)CC2C[C@@H](O)C1N2C (stereo not given in full)", "Monoamine transporters; serotonin & dopamine (Homo sapiens) (UniProt P31645+Q01959)", "criterion met"),
    ("COC(=O)C1=C(c2ccc(Cl)c(Cl)c2)CC2CCC1N2C (stereo not given)", "Monoamine transporters; serotonin & dopamine (Homo sapiens) (UniProt P31645+Q01959)", "criterion met"),
    ("COC(=O)C1=C(c2ccccc2)CC2CCC1N2C (stereo not given)", "Monoamine transporters; serotonin & dopamine (Homo sapiens) (UniProt P31645+Q01959)", "criterion met"),
    ("COC(=O)C1C(c2ccc(F)cc2)CC2[C@@H](O)CC1N2C (stereo in doubt; 17c)", "Monoamine transporters; serotonin & dopamine (Homo sapiens) (UniProt P31645+Q01959)", "criterion not met"),
    ("COC(=O)C1C(c2ccc3ccccc3c2)CC2[C@@H](O)CC1N2C (stereo in doubt; 14b)", "Monoamine transporters; serotonin & dopamine (Homo sapiens) (UniProt P31645+Q01959)", "criterion not met"),
    ("COC(=O)C1=C(c2ccccc2)CC2C[C@@H](O)C1N2C (stereo not given in full)", "Monoamine transporters; serotonin & dopamine (Homo sapiens) (UniProt P31645+Q01959)", "criterion not met"),
    ("COC(=O)C1C(c2ccccc2)CC2C[C@@H](O)C1N2C (stereo in doubt; 15d)", "Monoamine transporters; serotonin & dopamine (Homo sapiens) (UniProt P31645+Q01959)", "criterion met"),
    ("COC(=O)C1C(c2ccc3ccccc3c2)CC2C[C@@H](O)C1N2C (stereo in doubt; 15b)", "Monoamine transporters; serotonin & dopamine (Homo sapiens) (UniProt P31645+Q01959)", "criterion not met"),
    ("COC(=O)C1=C(c2ccc3ccccc3c2)CC2CCC1N2C (stereo not given)", "Monoamine transporters; serotonin & dopamine (Homo sapiens) (UniProt P31645+Q01959)", "criterion met"),
    ("COC(=O)C1=C(c2ccc(F)cc2)CC2CCC1N2C (stereo not given)", "Monoamine transporters; serotonin & dopamine (Homo sapiens) (UniProt P31645+Q01959)", "criterion met"),
    ("COC(=O)C1=C(c2ccc(Cl)c(Cl)c2)CC2C[C@H](O)[C@H]1N2C", "Monoamine transporters; serotonin & dopamine (Homo sapiens) (UniProt P31645+Q01959)", "criterion not met"),
    ("COC(=O)[C@@H]1C(c2ccc(Cl)c(Cl)c2)C[C@H]2C[C@@H](O)C1N2C (stereo not given in full)", "Monoamine transporters; serotonin & dopamine (Homo sapiens) (UniProt P31645+Q01959)", "criterion met"),
    ("COC(=O)C1=C(c2ccc(Cl)c(Cl)c2)CC2[C@@H](O)CC1N2C (stereo not given in full)", "Monoamine transporters; serotonin & dopamine (Homo sapiens) (UniProt P31645+Q01959)", "criterion met"),
    ("COC(=O)C1=C(c2ccc3ccccc3c2)CC2[C@@H](O)CC1N2C (stereo not given in full)", "Monoamine transporters; serotonin & dopamine (Homo sapiens) (UniProt P31645+Q01959)", "criterion not met"),
    ("COC(=O)C1C(c2ccc(Cl)c(Cl)c2)CC2C[C@@H](O)C1N2C (stereo in doubt; 15a)", "Monoamine transporters; serotonin & dopamine (Homo sapiens) (UniProt P31645+Q01959)", "criterion met"),
    ("COC(=O)C1C(c2ccccc2)CC2[C@@H](O)CC1N2C (stereo in doubt; 14d)", "Monoamine transporters; serotonin & dopamine (Homo sapiens) (UniProt P31645+Q01959)", "criterion met"),
]
